Target: T1, PTPN4, P29074
T1 sequence (P29074 512-599, limits assumed, looked up): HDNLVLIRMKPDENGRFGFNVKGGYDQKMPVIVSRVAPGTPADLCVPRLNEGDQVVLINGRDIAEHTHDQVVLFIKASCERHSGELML
Experiment: holdup assay
Parameters: key: below the threshold = too weak to quantify, mostly under pKd 3.1 to 4
Conditions: plain residues with an end cap or a label only (N-terminal biotin on a linker: ttds)
reported-property: pKd
Provide a numeric answer; units are not to be included.

SSRTRRETQL [HPV16-E6, P03126]; 4.61

Continue with the binder presented below.
Reported pKd, binder STLTIFETAL [ABCC4, O15439] : ____ 4.97
